molecular target: PPARδ (Homo sapiens, UniProt Q03181); construct: expressed in transfected cells; host or cells: COS-7; experiment: GAL4 hybrid reporter gene method, PPARδ agonistic activity; assay type: cell-based; settings: Cos-7 cells, Gal4-PPARδ (LBD); GW501516 10 nM = 100%; 16 h
value kind: EC50 (nM)

Solved entries:
{"compound structure": "COc1ccc(N2CC(=O)N(Cc3cc(C)c(OC(C)(C)C(=O)O)c(C)c3)C2=O)cc1", "target entity": "PPARδ (Homo sapiens, UniProt Q03181)", "quantitative result": 36.1}
{"compound structure": "Cc1cc(CN2C(=O)CN(c3ccc(C(F)(F)F)cc3)C2=O)cc(C)c1OCC(=O)O", "target entity": "PPARδ (Homo sapiens, UniProt Q03181)", "quantitative result": 175}
{"compound structure": "Cc1cc(CN2C(=O)CN(c3ccccc3)C2=O)cc(C)c1OC(C)(C)C(=O)O", "target entity": "PPARδ (Homo sapiens, UniProt Q03181)", "quantitative result": 90.5}
{"compound structure": "CC(C)(Oc1c(F)cc(CN2C(=O)CN(c3ccc(C(F)(F)F)cc3)C2=O)cc1F)C(=O)O", "target entity": "PPARδ (Homo sapiens, UniProt Q03181)", "quantitative result": 101}
{"compound structure": "Cc1cc(CN2C(=O)CN(c3ccc(OC(F)(F)F)cc3)C2=O)cc(C)c1OC(C)(C)C(=O)O", "target entity": "PPARδ (Homo sapiens, UniProt Q03181)", "quantitative result": 4.4}

(I) CC(C)(Oc1ccc(CN2C(=O)CN(c3ccc(C(F)(F)F)cc3)C2=O)cc1)C(=O)O
(II) Cc1ccc(N2CC(=O)N(Cc3cc(C)c(OC(C)(C)C(=O)O)c(C)c3)C2=O)cc1
Please state the entry with greater EC50 among I and II . Reply briefly: the label of your chosen item. I

====

molecular target: PPARγ (Homo sapiens); construct: expressed in transfected cells; host or cells: COS-7; experiment: GAL4 hybrid reporter gene method, PPARγ agonistic activity; type: cell-based
pEC50: −log10 of the molar value.
value kind: pEC50

(P) Cc1cc(N2CC(=O)N(Cc3cc(C)c(OC(C)(C)C(=O)O)c(C)c3)C2=O)ccc1C(F)(F)F
(Q) CC(C)(Oc1ccc(CN2C(=O)CN(c3ccc(C(F)(F)F)cc3)C2=O)cc1Br)C(=O)O
Identify the entry with the smaller pEC50: P or Q . Reply briefly: the label of your chosen item. Q

====

Target: PPARδ (Homo sapiens)
Construct: expressed in transfected cells; host or cells: COS-7
Sequence (Q03181 211-439 limits assumed): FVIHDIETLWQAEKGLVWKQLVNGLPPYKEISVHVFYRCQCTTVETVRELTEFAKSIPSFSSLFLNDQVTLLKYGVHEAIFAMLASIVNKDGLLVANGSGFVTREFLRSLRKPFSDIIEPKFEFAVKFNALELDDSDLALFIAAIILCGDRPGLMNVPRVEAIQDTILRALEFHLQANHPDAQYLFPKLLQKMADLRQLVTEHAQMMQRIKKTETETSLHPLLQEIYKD
Test: GAL4 hybrid reporter gene method, PPARδ agonistic activity
Assay type: cell-based
pEC50: −log10 of the molar value.
value kind: pEC50

Solved entries:
{"compound": "Cc1cc(CN2C(=O)CN(c3cccc(F)c3)C2=O)cc(C)c1OC(C)(C)C(=O)O [Compound 103]", "pEC50": 7.01}
{"compound": "CC(C)(Oc1ccc(CN2C(=O)CN(c3ccc(C(F)(F)F)cc3)C2=O)cc1C(F)(F)F)C(=O)O [Compound 11]", "pEC50": 7.48}
{"compound": "Cc1cc(N2CC(=O)N(Cc3cc(C)c(OC(C)(C)C(=O)O)c(C)c3)C2=O)ccc1C(F)(F)F [Compound 29]", "pEC50": 9.00}
{"compound": "Cc1cc(CN2C(=O)N(c3ccc(OC(F)(F)F)cc3)C(C)(C)C2=O)cc(C)c1OC(C)(C)C(=O)O [Compound 7]", "pEC50": 6.75}

(a) CCOc1ccc(N2CC(=O)N(Cc3cc(C)c(OC(C)(C)C(=O)O)c(C)c3)C2=O)cc1 [Compound 95]
(b) Cc1cc(CN2C(=O)CN(c3ccc(C(F)(F)F)cc3)C2=O)ccc1OCC(=O)O [Compound 9]
Please state the entry with greater pEC50 among a and b . Reply briefly: the label of your chosen item. a

(A) Cc1cc(CN2C(=O)CN(c3cccc(Cl)c3)C2=O)cc(C)c1OC(C)(C)C(=O)O [Compound 107]
(B) Cc1cc(CCCN2CC(=O)N(c3ccc(C(F)(F)F)cc3)C2=O)cc(C)c1OC(C)(C)C(=O)O [Compound 91]
Identify the entry with the smaller pEC50: A or B . Reply briefly: the label of your chosen item. B
(B: 6.20, A: 7.32)

(a) CC(C)(Oc1ccc(CN2C(=O)CN(c3ccc(C(F)(F)F)cc3)C2=O)cc1OC(F)(F)F)C(=O)O [Compound 55]
(b) CCC(Oc1c(C)cc(CN2C(=O)CN(c3ccc(C(F)(F)F)cc3)C2=O)cc1C)C(=O)O (centres unmarked) [Compound 67]
(c) CC(C)(Oc1ccc(CN2C(=O)CN(c3ccc(C(F)(F)F)cc3)C2=O)cc1Cl)C(=O)O [Compound 51]
Arrange items by their pEC50 values in increasing order. Write the labels out in the order the request specifies. c, a, b

====

assay: Pharmacokinetic evaluation in rats; format: in vivo, SD rats; conditions: male, SD, rat, plasma, 2 mg/kg, intravenous injection, 2 mpk, read-out: Peak time Tmax
value kind: Tmax (min)
Report the figure in min without appending any unit label.

Using known records, supply Tmax for Cc1cc(CN2C(=O)CN(c3ccc(C(F)(F)F)cc3)C2=O)cc(C)c1OC(C)(C)C(=O)O 4.8

====

Molecular target: PPARγ (Homo sapiens)
Construct: expressed in transfected cells; host or cells: COS-7
Sequence (P37231 238-503 limits assumed): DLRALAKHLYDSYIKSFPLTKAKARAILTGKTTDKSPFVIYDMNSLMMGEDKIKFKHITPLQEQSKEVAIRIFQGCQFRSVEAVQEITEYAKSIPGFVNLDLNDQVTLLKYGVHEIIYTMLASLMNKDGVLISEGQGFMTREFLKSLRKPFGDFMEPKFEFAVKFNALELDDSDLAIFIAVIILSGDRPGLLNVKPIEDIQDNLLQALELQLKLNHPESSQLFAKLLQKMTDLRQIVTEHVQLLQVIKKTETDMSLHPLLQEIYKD
Test: GAL4 hybrid reporter gene method, PPARγ agonistic activity
Assay type: cell-based
Settings: Cos-7 cells, Gal4-PPARγ (LBD); Rosiglitazone 1 μM = 100%; 16 h
pEC50: −log10 of the molar value.
value kind: pEC50

{"compound": "Cc1cc(CN2C(=O)N(c3ccc(C(F)(F)F)cc3)C(=O)C2(C)C)cc(C)c1OC(C)(C)C(=O)O [Compound 83]", "pEC50": 5.77}

(A) Cc1cc(CN2C(=O)CN(c3ccc(C#N)cc3)C2=O)cc(C)c1OC(C)(C)C(=O)O [Compound 37]
(B) Cc1cc(CN2C(=O)CN(c3ccc(-c4ccccc4)cc3)C2=O)cc(C)c1OC(C)(C)C(=O)O [Compound 41]
(C) Cc1cc(CN2C(=O)CN(c3cccc(C(F)(F)F)c3)C2=O)cc(C)c1OC(C)(C)C(=O)O [Compound 45]
(D) Cc1cc(CN2C(=O)CN(c3ccccc3)C2=O)cc(C)c1OC(C)(C)C(=O)O [Compound 35]
Arrange items by their pEC50 values in increasing order. Write the labels out in the order the request specifies. A, D, C, B

(I) Cc1cc(CN2C(=O)CN(c3ccc(F)cc3)C2=O)cc(C)c1OC(C)(C)C(=O)O [Compound 25]
(II) Cc1cc(CN2C(=O)CN(c3ccc(C(C)C)cc3)C2=O)cc(C)c1OC(C)(C)C(=O)O [Compound 65]
Identify the entry with the smaller pEC50: I or II . Reply briefly: the label of your chosen item. I
(I: 5.44, II: 6.01)

====

biological target: PPARγ (Homo sapiens, UniProt P37231); construct: expressed in transfected cells; host or cells: COS-7; assay: GAL4 hybrid reporter gene method, PPARγ agonistic activity; format: cell-based
value kind: EC50 (nM)

{"molecule": "Cc1cc(CN2C(=O)CN(c3cccc(F)c3)C2=O)cc(C)c1OC(C)(C)C(=O)O [Compound 103]", "EC50 (nM)": 474}

(A) Cc1cc(CN2C(=O)CN(c3cccc(OC(F)(F)F)c3)C2=O)cc(C)c1OC(C)(C)C(=O)O [Compound 109]
(B) CCOc1ccc(N2CC(=O)N(Cc3cc(C)c(OC(C)(C)C(=O)O)c(C)c3)C2=O)cc1 [Compound 95]
Please state the entry with greater EC50 among A and B . Reply briefly: the label of your chosen item. B
(B: 1330 nM, A: 363 nM)

====

test: Metabolic stability in human liver microsomes; assay type: in vitro ADME; details: human liver microsomes 0.75 mg/mL, NADPH
value kind: half-life (min)
Report the figure in min without appending any unit label.

Using known records, supply half-life for CSc1ccc(C(=O)/C=C/c2cc(C)c(OC(C)(C)C(=O)O)c(C)c2)cc1 [GFT505, Elafibranor, reference compound] 15
